Please respond with reported protein stability index for every item in the list.
B1: ZNF449 (parent)
chain: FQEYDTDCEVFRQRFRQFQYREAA

Variants of: B1
Test Details: protein stability index of a GFP-peptide fusion (GPS, HEK-293T) (PSI 1-6); higher = more stable;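 also: lentivirally expressed fusions sorted by FACS into six bins by GFP to DsRed ratio, PSI derived from sequencing read proportions per bin multiplied by bin number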
Assay Setup: c terminus: a fixed tail appended
Number, no unit, nothing else.

Query: Which protein stability index is listed for Q19G ?
Result: 2.67

Query: Which protein stability index is listed for F1E ?
Result: 3.25

Query: Which protein stability index is listed for E9T ?
Result: 1.89

Query: Which protein stability index is listed for D5M ?
Result: 2.05

Query: Which protein stability index is listed for R12K ?
Result: 2.38

Query: Which protein stability index is listed for R12Q ?
Result: 2.61

Query: Which protein stability index is listed for Q13C ?
Result: 2.34

Query: Which protein stability index is listed for E3L ?
Result: 1.99

Query: Which protein stability index is listed for F18C ?
Result: 1.96

Query: Which protein stability index is listed for R12L ?
Result: 1.97

Query: Which protein stability index is listed for D5S ?
Result: 2.28

Query: Which protein stability index is listed for E22N ?
Result: 2.39

Query: Which protein stability index is listed for Q13W ?
Result: 2.42

Query: Which protein stability index is listed for R21T ?
Result: 2.86

Query: Which protein stability index is listed for C8G ?
Result: 2.08

Query: Which protein stability index is listed for V10R ?
Result: 2.37

Query: Which protein stability index is listed for R21L ?
Result: 1.91

Query: Which protein stability index is listed for C8F ?
Result: 2.24

Query: Which protein stability index is listed for Q2I ?
Result: 1.97

Query: Which protein stability index is listed for T6W ?
Result: 2.11

Query: Which protein stability index is listed for V10E ?
Result: 3.08

Query: Which protein stability index is listed for D5L ?
Result: 2.5

Query: Which protein stability index is listed for T6C ?
Result: 1.94

Query: Which protein stability index is listed for Q13K ?
Result: 2.22

Query: Which protein stability index is listed for Q2E ?
Result: 2.73

Query: Which protein stability index is listed for D7M ?
Result: 1.59

Query: Which protein stability index is listed for E3G ?
Result: 1.41

Query: Which protein stability index is listed for R16D ?
Result: 2.6

Query: Which protein stability index is listed for R12Y ?
Result: 2.06

Query: Which protein stability index is listed for R12D ?
Result: 3.31

Query: Which protein stability index is listed for Q13V ?
Result: 2.53

Query: Which protein stability index is listed for D7P ?
Result: 1.61

Query: Which protein stability index is listed for F1W ?
Result: 2.82

Query: Which protein stability index is listed for Y20E ?
Result: 3.52

Query: Which protein stability index is listed for Q13G ?
Result: 1.81

Query: Which protein stability index is listed for R12E ?
Result: 2.48

Query: Which protein stability index is listed for R14C ?
Result: 2.23

Query: Which protein stability index is listed for F18E ?
Result: 2.95

Query: Which protein stability index is listed for D7C ?
Result: 1.1

Query: Which protein stability index is listed for R14K ?
Result: 3.16

Query: Which protein stability index is listed for R12C ?
Result: 1.71

Query: Which protein stability index is listed for F11R ?
Result: 4.69

Query: Which protein stability index is listed for A23T ?
Result: 2.47

Query: Which protein stability index is listed for E9C ?
Result: 1.76

Query: Which protein stability index is listed for D5K ?
Result: 2.64

Query: Which protein stability index is listed for R16Y ?
Result: 2.4

Query: Which protein stability index is listed for R16Q ?
Result: 2.78

Query: Which protein stability index is listed for F15K ?
Result: 2.22

Query: Which protein stability index is listed for V10D ?
Result: 3.02

Query: Which protein stability index is listed for D7F ?
Result: 2.27

Query: Which protein stability index is listed for D7N ?
Result: 1.83

Query: Which protein stability index is listed for Y20A ?
Result: 3.12

Query: Which protein stability index is listed for F15N ?
Result: 2.88

Query: Which protein stability index is listed for E9Q ?
Result: 1.88

Query: Which protein stability index is listed for V10I ?
Result: 2.5

Query: Which protein stability index is listed for Q19M ?
Result: 2

Query: Which protein stability index is listed for Y20W ?
Result: 1.47

Query: Which protein stability index is listed for D5T ?
Result: 1.35

Query: Which protein stability index is listed for E3V ?
Result: 2.31

Query: Which protein stability index is listed for R14N ?
Result: 2.62

Query: Which protein stability index is listed for E3P ?
Result: 1.56

Query: Which protein stability index is listed for E22K ?
Result: 2.75

Query: Which protein stability index is listed for F15G ?
Result: 2.85

Query: Which protein stability index is listed for V10K ?
Result: 2.35

Query: Which protein stability index is listed for Y4T ?
Result: 1.7

Query: Which protein stability index is listed for E22F ?
Result: 2.69

Query: Which protein stability index is listed for E22G ?
Result: 2.35

Query: Which protein stability index is listed for R16C ?
Result: 2.07

Query: Which protein stability index is listed for A23K ?
Result: 3.31

Query: Which protein stability index is listed for Q13L ?
Result: 1.67

Query: Which protein stability index is listed for E9A ?
Result: 2

Query: Which protein stability index is listed for D5Q ?
Result: 1.57

Query: Which protein stability index is listed for F18R ?
Result: 2.43

Query: Which protein stability index is listed for E9F ?
Result: 1.96

Query: Which protein stability index is listed for E22A ?
Result: 2.43

Query: Which protein stability index is listed for R12S ?
Result: 2.53

Query: Which protein stability index is listed for Q19P ?
Result: 2.16

Query: Which protein stability index is listed for E3M ?
Result: 1.85

Query: Which protein stability index is listed for Q17Y ?
Result: 2.86

Query: Which protein stability index is listed for V10S ?
Result: 2.78

Query: Which protein stability index is listed for Q17V ?
Result: 2.3

Query: Which protein stability index is listed for F18I ?
Result: 2.86

Query: Which protein stability index is listed for A24D ?
Result: 2.8

Query: Which protein stability index is listed for R16P ?
Result: 2.11

Query: Which protein stability index is listed for E3S ?
Result: 2.15

Query: Which protein stability index is listed for D5C ?
Result: 2.09

Query: Which protein stability index is listed for R21H ?
Result: 2.53

Query: Which protein stability index is listed for F1G ?
Result: 3.31

Query: Which protein stability index is listed for D7R ?
Result: 2.3

Query: Which protein stability index is listed for Q2K ?
Result: 2.96

Query: Which protein stability index is listed for Q13F ?
Result: 1.87
